tested on: NCI-H865; assay: sensitivity of SCLC cell line, procedure of Oltersdorf; type: cell-based; details: Homo sapiens, read-out: sensitivity class by EC50
metric: EC50

Exam item: Report value: EC50, system: NCI-H865, compound: CN(C)CC[C@H](CSc1ccccc1)Nc1ccc(S(=O)(=O)NC(=O)c2ccc(N3CCN(Cc4ccccc4-c4ccc(Cl)cc4)CC3)cc2)cc1[N+](=O)[O-]
Marked response: < 5 µM

---

test system: Rs11380; assay: cell cytotoxicity EC50, CellTiter Glo, leukemia/lymphoma cell line; format: cell-based, human; details: Homo sapiens, read-out: Response Designation
metric: EC50

Exam item: Dear colleague, please send me the reported EC50 for CC1(C)CCC(c2ccc(Cl)cc2)=C(CN2CCN(c3ccc(C(=O)NS(=O)(=O)c4ccc(N[C@H](CCN5CCOCC5)CSc5ccccc5)c(S(=O)(=O)C(F)(F)F)c4)cc3)CC2)C1 [ABT-263] when you can.
Marked response: ≤ 4.8 µM

---

test system: Reh; assay: cell cytotoxicity EC50, CellTiter Glo, leukemia/lymphoma cell line; format: cell-based, human; conditions: 10% human serum, 48 hours, read-out: EC50
metric: EC50 (nM)
Write the number in nM without appending the unit.

Exam item: Return reported EC50. Input compound: CC1(C)CCC(c2ccc(Cl)cc2)=C(CN2CCN(c3ccc(C(=O)NS(=O)(=O)c4ccc(N[C@H](CCN5CCOCC5)CSc5ccccc5)c(S(=O)(=O)C(F)(F)F)c4)cc3)CC2)C1 [ABT-263]
Marked response: 434

---

system: Rec-1; assay: cell cytotoxicity EC50, CellTiter Glo, Mantle Cell Lymphoma cell line, Rec-1 sub-clone batch listed first; type: cell-based, human; conditions: Rec1, 10% human serum, 48 hours, read-out: EC50
metric: pEC50
# pEC50 is unitless: minus log10 of the molar concentration; print number only

Exam item: Find the measured pEC50 of CC1(C)CCC(c2ccc(Cl)cc2)=C(CN2CCN(c3ccc(C(=O)NS(=O)(=O)c4ccc(N[C@H](CCN5CCOCC5)CSc5ccccc5)c(S(=O)(=O)C(F)(F)F)c4)cc3)CC2)C1 [ABT-263] with Rec-1 as test system.
Marked response: 7.47

---

system: Rec-1; test: cell cytotoxicity EC50, CellTiter Glo, Mantle Cell Lymphoma cell line, Rec-1 sub-clone batch listed second; assay type: cell-based, human; conditions: Homo sapiens, Rec1, read-out: Response Designation
metric: EC50

Exam item: Report measured EC50; entry is CC1(C)CCC(c2ccc(Cl)cc2)=C(CN2CCN(c3ccc(C(=O)NS(=O)(=O)c4ccc(N[C@H](CCN5CCOCC5)CSc5ccccc5)c(S(=O)(=O)C(F)(F)F)c4)cc3)CC2)C1 [ABT-263]
Marked response: ≤ 4.8 µM

---

tested on: NCI-H209; assay: cell cytotoxicity EC50, CellTiter Glo, SCLC cell line; assay type: cell-based, human; details: 10% human serum, 48 hours, read-out: EC50
metric: pEC50
// pEC50 is dimensionless: -log10 of concentration (M)

Exam item: Entry CC1(C)CCC(c2ccc(Cl)cc2)=C(CN2CCN(c3ccc(C(=O)NS(=O)(=O)c4ccc(N[C@H](CCN5CCOCC5)CSc5ccccc5)c(S(=O)(=O)C(F)(F)F)c4)cc3)CC2)C1 needs its pEC50 filled in; supply it.
Marked response: 5.94

---

test system: NCI-H1930; assay: cell cytotoxicity EC50, CellTiter Glo, SCLC cell line; assay type: cell-based, human; details: 10% human serum, 48 hours, read-out: EC50
metric: pEC50
Lab note: report pEC50 as minus log10 of the concentration in molar units, number only.

Exam item: Determine from records and report pEC50 for CC1(C)CCC(c2ccc(Cl)cc2)=C(CN2CCN(c3ccc(C(=O)NS(=O)(=O)c4ccc(N[C@H](CCN5CCOCC5)CSc5ccccc5)c(S(=O)(=O)C(F)(F)F)c4)cc3)CC2)C1 [ABT-263]
Marked response: 5.52

---

system: RS4; 11; experiment: cell cytotoxicity EC50, CellTiter Glo, leukemia/lymphoma cell line; assay type: cell-based, human; conditions: RS4; 11; 10% human serum; 48 hours; read-out: EC50
metric: EC50
Number first, unit second: that is the form wanted.

Exam item: Provide EC50 value for the following compound: CC1(C)CCC(c2ccc(Cl)cc2)=C(CN2CCN(c3ccc(C(=O)NS(=O)(=O)c4ccc(N[C@H](CCN5CCOCC5)CSc5ccccc5)c(S(=O)(=O)C(F)(F)F)c4)cc3)CC2)C1 [ABT-263]
Marked response: 95 nM

---

system: CCRF-CEM; assay: cell cytotoxicity EC50, CellTiter Glo, leukemia/lymphoma cell line; type: cell-based, human; conditions: Homo sapiens, read-out: Response Designation
pEC50: −log10 of the molar value.
metric: pEC50

Exam item: Please give measured pEC50 of the following entry: CC1(C)CCC(c2ccc(Cl)cc2)=C(CN2CCN(c3ccc(C(=O)NS(=O)(=O)c4ccc(N[C@H](CCN5CCOCC5)CSc5ccccc5)c(S(=O)(=O)C(F)(F)F)c4)cc3)CC2)C1
Marked response: ≥ 5.32

---

test system: H69AR; test: cell cytotoxicity EC50, CellTiter Glo, SCLC cell line; format: cell-based, human; conditions: Homo sapiens, read-out: Response Designation
pEC50: −log10 of the molar value.
metric: pEC50

Exam item: Tell me measured pEC50 for CC1(C)CCC(c2ccc(Cl)cc2)=C(CN2CCN(c3ccc(C(=O)NS(=O)(=O)c4ccc(N[C@H](CCN5CCOCC5)CSc5ccccc5)c(S(=O)(=O)C(F)(F)F)c4)cc3)CC2)C1 [ABT-263] please.
Marked response: < 5.39

---

system: SuDHL-4; assay: cell cytotoxicity EC50, CellTiter Glo, leukemia/lymphoma cell line; assay type: cell-based, human; conditions: SU-DHL-4, 10% human serum, 48 hours, read-out: EC50
metric: pEC50
// scale note: pEC50 = -log10(conc_M); give the bare number

Exam item: Return pEC50 (reported value) for this compound: CC1(C)CCC(c2ccc(Cl)cc2)=C(CN2CCN(c3ccc(C(=O)NS(=O)(=O)c4ccc(N[C@H](CCN5CCOCC5)CSc5ccccc5)c(S(=O)(=O)C(F)(F)F)c4)cc3)CC2)C1
Marked response: 5.98

---

system: Daudi; test: sensitivity of leukemia/lymphoma cell line, 5 uM cut-off; assay type: cell-based; conditions: Homo sapiens, read-out: sensitivity class by EC50
pEC50: −log10 of the molar value.
metric: pEC50

# chemical structure, tested on, pEC50
rows = [
    ("CN(C)CC[C@H](CSc1ccccc1)Nc1ccc(S(=O)(=O)NC(=O)c2ccc(N3CCN(Cc4ccccc4-c4ccc(Cl)cc4)CC3)cc2)cc1[N+](=O)[O-]", "Daudi", "> 5.30"),
]

Exam item: Provide pEC50 value for the following molecule: CC1(C)CCC(c2ccc(Cl)cc2)=C(CN2CCN(c3ccc(C(=O)NS(=O)(=O)c4ccc(N[C@H](CCN5CCOCC5)CSc5ccccc5)c(S(=O)(=O)C(F)(F)F)c4)cc3)CC2)C1
Marked response: > 5.30

---

tested on: U-937; assay: cell cytotoxicity EC50, CellTiter Glo, leukemia/lymphoma cell line; type: cell-based, human; conditions: 10% human serum, 48 hours, read-out: EC50
metric: EC50
Respond with the figure and its unit, in that order.

Exam item: Report EC50 for CC1(C)CCC(c2ccc(Cl)cc2)=C(CN2CCN(c3ccc(C(=O)NS(=O)(=O)c4ccc(N[C@H](CCN5CCOCC5)CSc5ccccc5)c(S(=O)(=O)C(F)(F)F)c4)cc3)CC2)C1
Marked response: 33.9 µM

---

tested on: SuPB15; assay: cell cytotoxicity EC50, CellTiter Glo, leukemia/lymphoma cell line; format: cell-based, human; conditions: SUP-B15, 10% human serum, 48 hours, read-out: EC50
metric: pEC50
In simple prose, pEC50 is minus the logarithm base ten of a concentration in moles per litre.

Exam item: Identify pEC50 associated with the compound CC1(C)CCC(c2ccc(Cl)cc2)=C(CN2CCN(c3ccc(C(=O)NS(=O)(=O)c4ccc(N[C@H](CCN5CCOCC5)CSc5ccccc5)c(S(=O)(=O)C(F)(F)F)c4)cc3)CC2)C1 [ABT-263]
Marked response: 6.59

---

tested on: DMS153; experiment: cell cytotoxicity EC50, CellTiter Glo, SCLC cell line; type: cell-based, human; settings: DMS-153, 10% human serum, 48 hours, read-out: EC50
metric: pEC50
// pEC50: -log10(molar conc.)

Exam item: Provide DMS153 pEC50 reading for CC1(C)CCC(c2ccc(Cl)cc2)=C(CN2CCN(c3ccc(C(=O)NS(=O)(=O)c4ccc(N[C@H](CCN5CCOCC5)CSc5ccccc5)c(S(=O)(=O)C(F)(F)F)c4)cc3)CC2)C1 .
Marked response: 4.96

---

tested on: A3; assay: sensitivity of leukemia/lymphoma cell line, 5 uM cut-off; format: cell-based; conditions: Homo sapiens, read-out: sensitivity class by EC50
metric: EC50

# molecule, metric, reported measurement
rows = [
    ("CN(C)CC[C@H](CSc1ccccc1)Nc1ccc(S(=O)(=O)NC(=O)c2ccc(N3CCN(Cc4ccccc4-c4ccc(Cl)cc4)CC3)cc2)cc1[N+](=O)[O-] [ABT-737]", "EC50", "< 5 µM"),
]

// moving on: another record for EC50
Exam item: State its EC50 for this molecule: CC1(C)CCC(c2ccc(Cl)cc2)=C(CN2CCN(c3ccc(C(=O)NS(=O)(=O)c4ccc(N[C@H](CCN5CCOCC5)CSc5ccccc5)c(S(=O)(=O)C(F)(F)F)c4)cc3)CC2)C1 [ABT-263]
Marked response: < 5 µM
